B1: Homeobox protein cut-like 2, residues 895 to 963; numbered along this chain, O14529 (parent)
chain: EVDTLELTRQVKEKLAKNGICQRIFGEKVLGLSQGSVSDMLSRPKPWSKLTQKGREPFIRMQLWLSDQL

Variants of: B1
Assay: abundance fitness (aPCA) (normalised: wild type 0, dead -1); higher = more abundant; growth selection in yeast, the domain comes from the species named
Settings: Homo sapiens
The following variants are shown together with reported abundance fitness values.
No unit in the answer, only the number.

A selection of reference data follows.
1) E6I -0.196
2) T4H -0.186
3) G19Y -0.122

Item: V37L | abundance fitness: 0.016

Item: D67Y | abundance fitness: -0.321

Item: L50Q | abundance fitness: -0.874

Item: L65S | abundance fitness: -0.962

Item: D39S | abundance fitness: -0.073

Item: S33V | abundance fitness: -0.061
